biological target: HLA-A3001 (Homo sapiens, UniProt P04439, D140H/D185E/E176W/F33S/G80R/H175R/K168Q/R138E/R41S); construct: expressed in transfected cells; host or cells: HMy2.CIR; assay: Peptide competitive binding assay, transfected HMy2.CIR cells, reference ASRELK(FITC)VSY; details: HLA-A3001 HMy2.CIR cells; competitor peptide 5μM; 24 hours; flow cytometry
Residues, ends and D or L forms follow the SMILES beside them.
measurement_kind: inhibition at 5 µM (%)
Give the value, in units of %, as a plain number.

Quick check: inhibition at 5 µM of CC[C@H](C)[C@H](NC(=O)[C@H](CCC(N)=O)NC(=O)[C@H](Cc1c[nH]cn1)NC(=O)[C@H](C)NC(=O)[C@H](CC(N)=O)NC(=O)[C@@H](NC(=O)[C@@H](N)[C@@H](C)O)C(C)C)C(=O)N[C@@H](CC(C)C)C(=O)N1CCC[C@H]1C(=O)N[C@@H](CCCCN)C(=O)O [Epitope P17] (H-TVNAHQILPK-OH; N-terminus and C-terminus assumed) ?
42.5
